Numbers sourced from PubChem BioAssay (NCI).

# assay: NCI Yeast Anticancer Drug Screen. Data for the rad50EPP+ strain (AID 151);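 further: 0% = growth of vehicle-treated control cultures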
# conditionParameters: S. cerevisiae rad50 mutant strain, at 3.7 µM, active compounds read high
About 79,000 compounds went through this panel and 15% of them were active in at least one assay; those are over-represented in the sample as a whole.
parameterMeasured: growth inhibition (%)

>>> assayresult("O=C1c2ccccc2C(=O)c2cc(S(=O)(=O)Nc3ccccc3)ccc21")
21
>>> assayresult("CN(C)CC1CCCc2ccccc2C1=O (stereo not given)")
-4
>>> assayresult("Nc1ccc(S(=O)(=O)Nc2ccc(Nc3c4ccccc4nc4ccccc34)cc2)cc1")
56
>>> assayresult("CCC(c1ccc(O)cc1)C(CC)c1ccc(OCCN)cc1 (stereo not given)")
1
>>> assayresult("CCN(CC)CCNC(=O)c1nn(-c2ccc(Cl)cc2)c2c1CCc1cc(OC)ccc1-2")
32
>>> assayresult("Cn1c2nc3ccccc3c-2nc2ccccc21")
93
>>> assayresult("C=Cc1cnc([N+](=O)[O-])n1C")
15
>>> assayresult("Clc1cc(-c2ccccc2)nc2ccccc12")
27
>>> assayresult("O=C1C=CC(=O)N1c1ccc2c(c1)OCO2")
80
>>> assayresult("O=S(=O)(c1cc(Cl)ccc1O)c1cc(Cl)ccc1O")
5
>>> assayresult("O=Nn1c2ccccc2c2ccccc21")
18
>>> assayresult("CCn1ncc(N=O)c1N")
-4
>>> assayresult("Oc1ccccc1N=Cc1ccc(Cl)cc1")
21
>>> assayresult("S=c1nc(Cl)cc2[nH]c(Cl)cn12")
18
>>> assayresult("S=c1[nH]c2c(Cl)c(Cl)c(Cl)c(Cl)c2[nH]1")
20
>>> assayresult("Cc1ccccc1NC(=O)Cc1csc(N/N=C2\\NC(=O)/C(=C/c3cccc([N+](=O)[O-])c3)S2)n1")
9
>>> assayresult("Clc1c(Cl)c(Cl)c2n[nH]nc2c1Cl")
-51
>>> assayresult("CC(C)c1cccc(O)c(=O)c1")
8
>>> assayresult("CCCCCCCCCCCCCCCCCCNC(=S)/N=C\\C1=C(O)c2ccccc2C1=O")
7
>>> assayresult("Oc1ccc(Br)cc1C=NC1CCCCC1")
12

###

Examples of compounds with documented growth inhibition follow.
# assay: NCI Yeast Anticancer Drug Screen. Data for the rad52 strain (AID 147);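 further: 0% = growth of vehicle-treated control cultures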
# conditionParameters: S. cerevisiae rad52 mutant growth inhibition; at 3.7 µM; active compounds read high
# Method: Growth inhibition of yeast strains with defined genetic alterations is measured as a screen for potential anti-cancer activity. Selected strains with alterations in DNA damage repair or cell cycle control were exposed to compounds and growth inhibition was measured relative to vehicle treated controls. The strain used in this assay is rad52
The panel holds about 79,000 compounds, 15% with a hit somewhere; the sample as a whole holds those more often.
parameterMeasured: growth inhibition (%)

>>> assayresult("CO[C@@]12[C@H](COC(N)=O)C3=C(C(=O)C(C)=C(N)C3=O)N1C[C@@H]1N[C@@H]12")
19
>>> assayresult("O=c1ccc(N=Nc2ccccc2)ccc1O")
42
>>> assayresult("CN(C)c1ccc(N=Nc2ccccn2)cc1")
-12
>>> assayresult("Nc1cc(F)cc2c1-c1ccc(F)cc1C2")
-1
>>> assayresult("O=C(CNS(=O)(=O)Cc1ccccc1)NNc1ccccc1")
2
>>> assayresult("O=S(=O)(N/N=C/c1cccc(Cl)c1)c1ccccc1")
-3
>>> assayresult("S=P(N1CC1)(N1CC1)N1CC1")
2
>>> assayresult("O=C(/C=C/c1cccc(Br)c1)c1ccc(Cl)cc1")
-14
>>> assayresult("O=C1CC(=O)N(C2CCCCC2)C(=O)N1c1ccccc1S(=O)(=O)Oc1ccccc1")
3
>>> assayresult("CCOC(=O)[C@]1(Br)CC[C@@]1(Br)C(=O)OCC")
-24
>>> assayresult("NP1(Oc2ccc(F)cc2)=NP(N)(Oc2ccc(F)cc2)=NP(Oc2ccc(F)cc2)(Oc2ccc(F)cc2)=N1 (stereo not drawn)")
7
>>> assayresult("COc1ccc(/C=C2\\SC(=S)N(C=C3C(=O)NC(=S)NC3=O)C2=O)cc1OC")
15
>>> assayresult("COc1cc(NCc2ccc3nc(N)nc(N)c3c2C)cc(OC)c1OC")
5
>>> assayresult("CN(C)CCN1C(=O)c2cccc3cc([N+](=O)[O-])cc(c23)C1=O")
58
>>> assayresult("CC(C)(O)c1ccccc1C(c1ccccc1)c1ccccc1")
-3
>>> assayresult("O=C1CSC(=S)N1Cc1ccc(Cl)cc1Cl")
8
>>> assayresult("Cc1cccc2c1N=C(C(F)(F)F)CC2=O")
7
>>> assayresult("C=Cc1cnc([N+](=O)[O-])n1C")
35
>>> assayresult("CC(C)c1[nH]nc(C(N)=O)c1N=NN(C)C")
4
>>> assayresult("O=C1NC(c2c(Cl)cccc2Cl)Nc2ccccc21 (stereo not drawn)")
9
>>> assayresult("CCCCCCSc1nc(COC(=O)NC)c(COC(=O)NC)n1C")
0
>>> assayresult("Clc1cc(-c2ccccc2)nc2ccccc12")
-1
>>> assayresult("Cc1ccc(S(=O)(=O)Nc2ccc3c(c2)C(O)c2ccccc2-3)cc1 (stereo not drawn)")
-1

###

# assay: NCI Yeast Anticancer Drug Screen. Data for the wt1 strain (AID 149);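 further: 0% = growth of vehicle-treated wt1 cultures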
# conditionParameters: S. cerevisiae wt1 strain (SPY 50644) growth inhibition; at 33.0 µM; active compounds read high
This is part of a sample that, as a whole, favours compounds with a hit. Of some 79,000 tested, about 15% had one in any assay.
If the reported growth inhibition equals or exceeds 30%, assign label 1. If not, assign label 0.

>>> qualitativelabel("O=Nn1c2ccccc2c2cc([N+](=O)[O-])ccc21")
"label 1"
>>> qualitativelabel("Nc1ccc2c(=S)c3ccccc3[nH]c2c1")
"label 1"
>>> qualitativelabel("CN(NC(=O)/C(=C/c1ccc(O)cc1)NC(=O)c1ccccc1)c1ccnc2cc(Cl)ccc12")
"label 1"
>>> qualitativelabel("O=c1[nH]cc(/C=N\\Nc2ccccc2)c(=O)[nH]1")
"label 1"
>>> qualitativelabel("O=C(CCc1ccccc1)ON1C(=S)C(c2ccccc2)(c2ccccc2)N=C1Sc1ccccc1")
"label 0"
>>> qualitativelabel("COc1ccc(S(=O)(=O)N/N=C\\c2cc([N+](=O)[O-])cc(I)c2O)c(OC)c1OC")
"label 0"
>>> qualitativelabel("CC1(C)C(C=O)=CCC1CC(N)=O (stereo not drawn)")
"label 0"
>>> qualitativelabel("COc1ccc(/C=C(\\NC(=O)c2ccccc2)C(=O)NN(C)c2ccnc3cc(Cl)ccc23)cc1OC")
"label 0"
>>> qualitativelabel("Oc1ccc(Br)cc1C=NC1CCCCC1")
"label 1"
>>> qualitativelabel("Cc1ccc(I)cc1N=C=S")
"label 1"
>>> qualitativelabel("Cc1ccc(Nc2n[nH]c(=S)s2)cc1")
"label 1"
>>> qualitativelabel("N#C/C(=C1C=C(Br)/C(=N\\O)C=C\\1Cl)c1cccc2ccccc12")
"label 1"
>>> qualitativelabel("O=C(Nc1ccc2c(c1)Cc1c-2ccc([N+](=O)[O-])c1F)C(F)(F)F")
"label 0"
>>> qualitativelabel("O=C1CSC(=S)N1Cc1ccc(Cl)cc1Cl")
"label 1"
>>> qualitativelabel("CC(=O)[O-].O=C([CH-]C(=O)c1ccccc1)c1ccccc1.O=C([CH-]C(=O)c1ccccc1)c1ccccc1.[Sm+3]")
"label 1"
>>> qualitativelabel("Cc1ccc2occ/c(=N\\Nc3ccccc3)c2c1")
"label 0"
>>> qualitativelabel("CCN1/C(=C/c2ccc3ccccc3[n+]2CC)C=Cc2ccccc21")
"label 1"
>>> qualitativelabel("CN(N=O)c1ccc(/C=C/c2ccnc3ccccc23)cc1")
"label 0"
>>> qualitativelabel("CCCCCCCCCCCCCCCCCCNC(=S)/N=C\\C1=C(O)c2ccccc2C1=O")
"label 0"
>>> qualitativelabel("CCOP1(=O)C=C(Sc2ccc([N+](=O)[O-])cc2[N+](=O)[O-])C(C)(C)O1 (stereo not drawn)")
"label 0"
>>> qualitativelabel("COC(=O)c1oc([N+](=O)[O-])c(Cl)c1Cl")
"label 1"
>>> qualitativelabel("Cn1ncc2cc3c(Nc4ccc(Cl)cc4)cccc3nc21")
"label 0"
>>> qualitativelabel("C/C(=N\\NC(=S)NNC(=S)N(C)c1ccccc1)c1ccccn1")
"label 1"
>>> qualitativelabel("CC(C)c1[nH]nc(C(N)=O)c1N=NN(C)C")
"label 0"
>>> qualitativelabel("CC1CCC2(C(=O)O)CCC3(C)C(=CCC4C5(C)CC(O)C(O)C(C)(CO)C5C(O)CC43C)C2C1C (stereo not drawn)")
"label 0"
>>> qualitativelabel("COc1cccc(C(c2cc3c(cc2O)OCO3)N2CCOCC2)c1OC (stereo not drawn)")
"label 0"
>>> qualitativelabel("CN(N=O)C(=O)N[C@@H](C=O)[C@@H](O)[C@H](O)[C@H](O)CO")
"label 0"
>>> qualitativelabel("CCN(CC)CCNC(=O)c1nn(-c2ccc(Cl)cc2)c2c1CCc1cc(OC)ccc1-2")
"label 0"
>>> qualitativelabel("O=S(=O)(N/N=C/c1cccc(Cl)c1)c1ccccc1")
"label 1"
>>> qualitativelabel("Nc1nc(F)nc2c1ncn2C1OC(COP(=O)(O)O)C(O)C1O (stereo not drawn)")
"label 0"
>>> qualitativelabel("CCCCC(=O)c1c(O)nc2sccn2c1=O")
"label 1"
